# system: HIV-1 Env of C1080.c3 (HIV-1)
# assay: cell-based or functional assay
quantity_name: neutralization IC50 (µg/mL)
Kindly answer with a numeric value in µg/mL, unit omitted.

Assign neutralization IC50 to the following record: CAP256-VRC26.11 (antibody, V domains shown) VH: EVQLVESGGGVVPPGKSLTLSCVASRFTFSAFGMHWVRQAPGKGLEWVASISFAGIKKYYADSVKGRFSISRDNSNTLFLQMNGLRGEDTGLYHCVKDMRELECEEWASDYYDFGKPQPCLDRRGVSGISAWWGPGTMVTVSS VL: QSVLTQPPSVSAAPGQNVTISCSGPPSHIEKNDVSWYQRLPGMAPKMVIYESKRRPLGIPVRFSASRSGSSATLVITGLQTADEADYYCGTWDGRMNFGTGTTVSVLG 0.018

Assign neutralization IC50 to the following record: CAP256-VRC26.09 (antibody, V domains shown) VH: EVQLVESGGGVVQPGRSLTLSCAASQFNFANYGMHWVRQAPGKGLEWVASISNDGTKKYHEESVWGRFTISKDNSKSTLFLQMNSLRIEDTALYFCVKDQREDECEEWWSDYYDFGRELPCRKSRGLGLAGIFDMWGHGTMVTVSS VL: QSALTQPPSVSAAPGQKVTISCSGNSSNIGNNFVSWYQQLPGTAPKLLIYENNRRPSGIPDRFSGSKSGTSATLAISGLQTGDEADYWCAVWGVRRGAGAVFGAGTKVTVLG 0.019

Assign neutralization IC50 to the following record: CAP256-VRC26.04 (antibody, V domains shown) VH: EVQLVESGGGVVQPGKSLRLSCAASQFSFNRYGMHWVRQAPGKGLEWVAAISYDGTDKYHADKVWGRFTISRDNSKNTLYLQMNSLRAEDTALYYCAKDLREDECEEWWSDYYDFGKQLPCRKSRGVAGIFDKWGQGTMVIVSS VL: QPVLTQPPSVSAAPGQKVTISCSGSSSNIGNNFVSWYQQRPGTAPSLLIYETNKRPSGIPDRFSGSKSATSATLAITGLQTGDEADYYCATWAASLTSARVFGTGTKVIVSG 0.212

The values you see were collected from patent US20200199204A1.
